Experiment: in vitro
Type: in vitro ADME
Settings: human, Caco-2, pH 7.4, Recovery (%) BL-AP
reportedMetric: recovery at 2 h, 5 μM (%)

1. COc1nc(OC(F)(F)F)c(NC(=O)C2CCC3C4CN(C(=O)OC(C)(C)C)C5=CC(=O)CC[C@]5(C)C4CC[C@]23C)cc1Br (stereo partly shown) [Compound 107] | 63.4

###

Assay: Pharmacokinetics and bioavailability in plasma
Settings: male, CD-1, mouse, po, 5 mg/kg
reportedMetric: half-life

1) COc1nc(OC(F)(F)F)c(NC(=O)C2CCC3C4CN(C(=O)OC(C)(C)C)C5=CC(=O)CC[C@]5(C)C4CC[C@]23C)cc1Br (stereo partly shown) [Compound 107] | 299 min
